tested_system: UniProtKB C7FF04
Sequence (C7FF04 1-392): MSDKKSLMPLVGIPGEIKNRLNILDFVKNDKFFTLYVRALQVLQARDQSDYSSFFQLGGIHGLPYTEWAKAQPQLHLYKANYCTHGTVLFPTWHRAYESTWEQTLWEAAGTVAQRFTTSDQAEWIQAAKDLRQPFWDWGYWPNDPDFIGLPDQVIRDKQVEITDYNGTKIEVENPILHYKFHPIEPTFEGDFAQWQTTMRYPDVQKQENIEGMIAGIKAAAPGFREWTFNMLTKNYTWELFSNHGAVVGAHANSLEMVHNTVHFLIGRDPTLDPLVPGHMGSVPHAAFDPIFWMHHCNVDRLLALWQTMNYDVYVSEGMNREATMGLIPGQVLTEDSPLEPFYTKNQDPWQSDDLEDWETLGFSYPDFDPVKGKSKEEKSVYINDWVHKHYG

| compound | unit_text | IC50 |
| --- | --- | --- |
| Oc1ccc(/C=C/c2cc(O)cc(O)c2)cc1 [Re, 3,4′,5-trihydroxy-trans-stilbene] | µM | 517 |
| CC(=O)Oc1ccc(/C=C/c2cc(OC(C)=O)cc(OC(C)=O)c2)cc1 | µM | 396 |
| Oc1ccc(CCc2cc(O)cc(O)c2)cc1 [Dre, Dihydroresveratrol] | µM | 335 |
| Oc1cc(O)cc(/C=C/c2ccc(O)cc2O)c1 | µM | 4.02 |
